Test: Evaluation of solubility in organic solvents (visual observation of complete dissolution)
Assay type: physicochemical
Conditions: toluene, 100° C.
Overview of reported solubility (solute concentration completely dissolved) across a group of compounds:

[
  {
    "compound": "CCCCCCCCCCCCc1ccc(-c2ccc(-c3c4c(c(-c5ccc(-c6ccc(CCCCCCCCCCCC)c(C(F)(F)F)c6)s5)c5nsnc35)N=S=N4)s2)cc1C(F)(F)F [Compound (C28)]",
    "result": "≥ 0.3 wt %"
  },
  {
    "compound": "CCCCCCCCCCC(F)(F)c1cccc(-c2ccc(-c3c4c(c(-c5ccc(-c6cccc(C(F)(F)CCCCCCCCCC)c6)s5)c5nsnc35)N=S=N4)s2)c1 [Compound (C4)]",
    "result": "≥ 0.5 wt %"
  },
  {
    "compound": "FC(F)(F)Oc1cccc(-c2ccc(-c3c4c(c(-c5ccc(-c6cccc(OC(F)(F)F)c6)s5)c5nsnc35)N=S=N4)s2)c1 [Compound (C1)]",
    "result": "≥ 0.1 wt %"
  },
  {
    "compound": "CCCCCCc1ccc(-c2ccc(-c3c4c(c(-c5ccc(-c6ccc(CCCCCC)c(C#N)c6)s5)c5nsnc35)N=S=N4)s2)cc1C#N [Compound (C7)]",
    "result": "≥ 0.5 wt %"
  },
  {
    "compound": "FC(F)(F)c1cccc(-c2ccc(-c3c4c(c(-c5ccc(-c6cccc(C(F)(F)F)c6)s5)c5nsnc35)N=S=N4)s2)c1 [Compound (C2)]",
    "result": "≥ 0.1 wt %"
  }
]

Incoming: Supply solubility (solute concentration completely dissolved) value. Item: FC(F)(F)Sc1ccc(-c2ccc(-c3c4c(c(-c5ccc(-c6ccc(SC(F)(F)F)cc6)s5)c5nsnc35)N=S=N4)s2)cc1 [Compound (RC5), reference compound]
Outgoing: < 0.03 wt %

Incoming: Supply solubility (solute concentration completely dissolved) value. Item: FC(F)(F)Oc1ccc(-c2ccc(-c3c4c(c(-c5ccc(-c6ccc(OC(F)(F)F)cc6)s5)c5nsnc35)N=S=N4)s2)cc1 [Compound (RC1), reference compound]
Outgoing: < 0.03 wt %

Incoming: Supply solubility (solute concentration completely dissolved) value. Item: FC(F)(F)c1ccc(-c2ccc(-c3c4c(c(-c5ccc(-c6ccc(C(F)(F)F)cc6)s5)c5nsnc35)N=S=N4)s2)cc1 [Compound (RC2), reference compound]
Outgoing: < 0.03 wt %
